System: PTZ-induced epileptiform activity in rat entorhinal cortex-hippocampal slices
method summary: Rat hippocampal PTZ seizure-like activity analysis
Assay type: cell-based
experimental conditions: Rattus norvegicus, without perampanel; read-out: decanoic acid IC50 for epileptiform activity
endpoint label: pIC50
Please treat pIC50 as minus the base-10 logarithm of the molar concentration.

So what's the measured pIC50 for this one? CCCCCCCCCC(=O)O [decanoic acid]
3.45

* * *

experimental target: AMPA receptor GluA1/2 (Homo sapiens, UniProt P42261+P42262)
Construct: expressed in transfected cells; host or cells: Xenopus laevis oocytes
Sequence (P42261 19-906): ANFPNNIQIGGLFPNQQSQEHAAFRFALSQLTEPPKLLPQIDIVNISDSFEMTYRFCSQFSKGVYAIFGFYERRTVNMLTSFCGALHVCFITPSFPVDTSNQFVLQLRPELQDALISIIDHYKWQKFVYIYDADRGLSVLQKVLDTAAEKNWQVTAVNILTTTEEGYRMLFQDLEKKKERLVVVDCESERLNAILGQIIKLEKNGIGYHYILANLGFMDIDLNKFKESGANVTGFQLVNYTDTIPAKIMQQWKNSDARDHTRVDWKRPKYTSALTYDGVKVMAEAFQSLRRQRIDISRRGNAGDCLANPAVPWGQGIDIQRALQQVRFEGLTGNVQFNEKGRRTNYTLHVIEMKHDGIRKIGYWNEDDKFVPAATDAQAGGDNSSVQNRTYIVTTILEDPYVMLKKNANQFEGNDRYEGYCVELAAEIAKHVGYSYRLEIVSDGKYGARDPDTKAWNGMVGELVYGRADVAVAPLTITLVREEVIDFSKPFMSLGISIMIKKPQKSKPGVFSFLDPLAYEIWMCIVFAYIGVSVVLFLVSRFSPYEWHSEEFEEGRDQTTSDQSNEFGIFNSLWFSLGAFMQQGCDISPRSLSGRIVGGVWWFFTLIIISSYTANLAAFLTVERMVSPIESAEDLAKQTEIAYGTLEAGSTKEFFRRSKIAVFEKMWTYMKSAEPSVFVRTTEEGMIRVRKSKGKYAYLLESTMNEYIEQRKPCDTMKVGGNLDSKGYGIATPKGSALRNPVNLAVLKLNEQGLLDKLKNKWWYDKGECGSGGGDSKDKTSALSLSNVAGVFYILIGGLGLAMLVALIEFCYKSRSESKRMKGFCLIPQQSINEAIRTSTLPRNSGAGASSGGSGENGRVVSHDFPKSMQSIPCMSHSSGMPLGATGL
Sequence (P42262 22-883 limits assumed): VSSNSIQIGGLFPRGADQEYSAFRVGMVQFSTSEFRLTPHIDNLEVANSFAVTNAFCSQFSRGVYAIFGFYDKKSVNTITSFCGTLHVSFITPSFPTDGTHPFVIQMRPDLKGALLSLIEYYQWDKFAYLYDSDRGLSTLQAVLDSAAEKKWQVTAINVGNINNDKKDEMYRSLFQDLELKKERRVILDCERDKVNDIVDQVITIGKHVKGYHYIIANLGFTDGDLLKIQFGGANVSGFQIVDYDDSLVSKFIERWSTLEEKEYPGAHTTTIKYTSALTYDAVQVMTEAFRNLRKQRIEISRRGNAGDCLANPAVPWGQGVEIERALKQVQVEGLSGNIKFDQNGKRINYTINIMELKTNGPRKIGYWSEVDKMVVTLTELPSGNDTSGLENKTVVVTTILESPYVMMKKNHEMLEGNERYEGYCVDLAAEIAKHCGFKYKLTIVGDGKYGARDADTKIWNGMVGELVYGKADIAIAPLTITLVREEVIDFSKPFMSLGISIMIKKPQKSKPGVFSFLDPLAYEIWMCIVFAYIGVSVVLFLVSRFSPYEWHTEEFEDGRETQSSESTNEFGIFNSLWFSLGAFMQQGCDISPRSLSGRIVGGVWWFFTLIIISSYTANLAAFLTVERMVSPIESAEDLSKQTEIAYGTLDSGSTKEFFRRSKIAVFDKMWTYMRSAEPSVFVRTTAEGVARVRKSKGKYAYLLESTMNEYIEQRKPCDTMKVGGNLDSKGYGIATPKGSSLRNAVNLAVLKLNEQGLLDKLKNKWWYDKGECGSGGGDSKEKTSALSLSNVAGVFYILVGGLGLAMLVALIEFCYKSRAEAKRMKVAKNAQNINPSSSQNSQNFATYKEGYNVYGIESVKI
method summary: Direct AMPA receptor current recording (TEVC) in Xenopus oocytes, GluA1/2
Format: cell-based
experimental conditions: in the presence of 1 μM perampanel; read-out: decanoic acid IC50 for GluA1/2
endpoint label: pIC50
Please treat pIC50 as minus the base-10 logarithm of the molar concentration.

Param readout = pIC50; param system = AMPA receptor GluA1/2 (Homo sapiens, UniProt P42261+P42262); param query = CCCCCCCCCC(=O)O ; response: value
3.68

* * *

experimental target: AMPA receptor GluA1/2 (Homo sapiens, UniProt P42261+P42262)
Construct: expressed in transfected cells; host or cells: Xenopus laevis oocytes
method summary: Direct AMPA receptor current recording (TEVC) in Xenopus oocytes, GluA1/2
Type: cell-based
experimental conditions: perampanel IC50 in GluA1/2, in the presence of DA
endpoint label: pIC50
Please treat pIC50 as minus the base-10 logarithm of the molar concentration.

So what's the measured pIC50 for this one? N#Cc1ccccc1-c1cc(-c2ccccn2)cn(-c2ccccc2)c1=O [perampanel]
5.66

* * *

experimental target: AMPA receptor GluA2/3 (Homo sapiens, UniProt P42262+P42263)
Construct: expressed in transfected cells; host or cells: Xenopus laevis oocytes
Sequence (P42262 22-883 limits assumed): as above
Sequence (P42263 29-894): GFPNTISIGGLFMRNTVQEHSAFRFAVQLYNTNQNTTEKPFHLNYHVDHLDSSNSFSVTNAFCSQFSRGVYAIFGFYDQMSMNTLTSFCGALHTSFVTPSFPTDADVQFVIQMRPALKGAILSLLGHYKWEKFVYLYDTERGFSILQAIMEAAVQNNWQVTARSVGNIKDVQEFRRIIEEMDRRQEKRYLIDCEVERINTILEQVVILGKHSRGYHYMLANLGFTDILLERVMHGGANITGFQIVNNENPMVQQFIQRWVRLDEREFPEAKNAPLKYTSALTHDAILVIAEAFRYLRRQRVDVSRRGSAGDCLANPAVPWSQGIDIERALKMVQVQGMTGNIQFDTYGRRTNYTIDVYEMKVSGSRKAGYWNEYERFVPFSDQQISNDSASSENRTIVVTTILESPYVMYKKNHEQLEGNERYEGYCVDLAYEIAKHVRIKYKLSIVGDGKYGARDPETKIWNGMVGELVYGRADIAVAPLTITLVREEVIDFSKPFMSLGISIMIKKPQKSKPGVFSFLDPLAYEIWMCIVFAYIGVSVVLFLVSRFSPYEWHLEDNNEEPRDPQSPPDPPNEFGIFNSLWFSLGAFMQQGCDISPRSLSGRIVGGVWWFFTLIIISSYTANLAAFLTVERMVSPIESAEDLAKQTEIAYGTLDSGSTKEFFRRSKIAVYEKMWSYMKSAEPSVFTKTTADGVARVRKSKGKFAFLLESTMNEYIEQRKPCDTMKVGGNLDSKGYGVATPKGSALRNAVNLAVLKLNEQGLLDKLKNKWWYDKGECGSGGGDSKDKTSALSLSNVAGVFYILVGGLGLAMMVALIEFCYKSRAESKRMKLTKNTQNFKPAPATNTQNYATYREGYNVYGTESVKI
method summary: Direct AMPA receptor current recording (TEVC) in Xenopus oocytes, GluA2/3
Type: cell-based
experimental conditions: in the presence of 4 μM perampanel; read-out: decanoic acid IC50 for GluA2/3
endpoint label: IC50 (µM)
Kindly answer with a numeric value in µM, unit omitted.

So what's the measured IC50 for this one? CCCCCCCCCC(=O)O [decanoic acid]
40

* * *

experimental target: AMPA receptor GluA2/3 (Homo sapiens, UniProt P42262+P42263)
Construct: expressed in transfected cells; host or cells: Xenopus laevis oocytes
method summary: Direct AMPA receptor current recording (TEVC) in Xenopus oocytes, GluA2/3
Type: cell-based
experimental conditions: in the absence of perampanel; read-out: decanoic acid IC50 for GluA2/3
endpoint label: pIC50
Please treat pIC50 as minus the base-10 logarithm of the molar concentration.

Param readout = pIC50; param system = AMPA receptor GluA2/3 (Homo sapiens, UniProt P42262+P42263); param query = CCCCCCCCCC(=O)O ; response: value
3.28

* * *

experimental target: AMPA receptor GluA1/2 (Homo sapiens, UniProt P42261+P42262)
Construct: expressed in transfected cells; host or cells: Xenopus laevis oocytes
method summary: Direct AMPA receptor current recording (TEVC) in Xenopus oocytes, GluA1/2
Type: cell-based
experimental conditions: perampanel IC50 in GluA1/2
endpoint label: pIC50
Please treat pIC50 as minus the base-10 logarithm of the molar concentration.

So what's the measured pIC50 for this one? N#Cc1ccccc1-c1cc(-c2ccccn2)cn(-c2ccccc2)c1=O
5.68

* * *

Tested on: PTZ-induced epileptiform activity in rat entorhinal cortex-hippocampal slices
method summary: Rat hippocampal PTZ seizure-like activity analysis
Format: cell-based
experimental conditions: Rattus norvegicus, at 100 nM perampanel; read-out: decanoic acid IC50 for epileptiform activity
endpoint label: pIC50
Please treat pIC50 as minus the base-10 logarithm of the molar concentration.

So what's the measured pIC50 for this one? CCCCCCCCCC(=O)O
3.71

* * *

experimental target: AMPA receptor GluA2/3 (Homo sapiens, UniProt P42262+P42263)
Construct: expressed in transfected cells; host or cells: Xenopus laevis oocytes
method summary: Direct AMPA receptor current recording (TEVC) in Xenopus oocytes, GluA2/3
Format: cell-based
experimental conditions: perampanel IC50 in GluA2/3, in the presence of DA at 50 mM
endpoint label: IC50 (nM)
Kindly answer with a numeric value in nM, unit omitted.

So what's the measured IC50 for this one? N#Cc1ccccc1-c1cc(-c2ccccn2)cn(-c2ccccc2)c1=O
1700

* * *

experimental target: AMPA receptor GluA1/2 (Homo sapiens, UniProt P42261+P42262)
Construct: expressed in transfected cells; host or cells: Xenopus laevis oocytes
method summary: Direct AMPA receptor current recording (TEVC) in Xenopus oocytes, GluA1/2
Format: cell-based
experimental conditions: in the absence of perampanel; read-out: decanoic acid IC50 for GluA1/2
endpoint label: pIC50
Please treat pIC50 as minus the base-10 logarithm of the molar concentration.

So what's the measured pIC50 for this one? CCCCCCCCCC(=O)O [decanoic acid]
3.04

* * *

experimental target: AMPA receptor GluA2/3 (Homo sapiens, UniProt P42262+P42263)
Construct: expressed in transfected cells; host or cells: Xenopus laevis oocytes
method summary: Direct AMPA receptor current recording (TEVC) in Xenopus oocytes, GluA2/3
Format: cell-based
experimental conditions: perampanel IC50 in GluA2/3, in the presence of DA at 100 Mm
endpoint label: IC50
Entry format: amount then unit.

So what's the measured IC50 for this one? N#Cc1ccccc1-c1cc(-c2ccccn2)cn(-c2ccccc2)c1=O [perampanel]
1600 nM

* * *

experimental target: AMPA receptor GluA1/2 (Homo sapiens, UniProt P42261+P42262)
Construct: expressed in transfected cells; host or cells: Xenopus laevis oocytes
method summary: Direct AMPA receptor current recording (TEVC) in Xenopus oocytes, GluA1/2
Format: cell-based
experimental conditions: IC50, inhibition of AMPA receptor currents, perampanel alone; currents elicited by glutamate; Xenopus oocytes (FIG. 1B)
endpoint label: pIC50
Please treat pIC50 as minus the base-10 logarithm of the molar concentration.

So what's the measured pIC50 for this one? N#Cc1ccccc1-c1cc(-c2ccccn2)cn(-c2ccccc2)c1=O
5.95

* * *

experimental target: AMPA receptor GluA2/3 (Homo sapiens, UniProt P42262+P42263)
Construct: expressed in transfected cells; host or cells: Xenopus laevis oocytes
method summary: Direct AMPA receptor current recording (TEVC) in Xenopus oocytes, GluA2/3
Format: cell-based
experimental conditions: IC50, inhibition of AMPA receptor currents, perampanel alone; currents elicited by glutamate; Xenopus oocytes (FIG. 1B)
endpoint label: pIC50
Please treat pIC50 as minus the base-10 logarithm of the molar concentration.

So what's the measured pIC50 for this one? N#Cc1ccccc1-c1cc(-c2ccccn2)cn(-c2ccccc2)c1=O
5.82
